Parameter: pKi. Scope: all listed entries.
Measurement target: Prothrombin (Homo sapiens, UniProt P00734)
pKi: −log10 of the molar value.

# Query smiles, Operator, pKi
data = [
    ("N=C(N)c1ccc2nc(-c3cc([C@@H](CC(=O)O)C(=O)O)cc(-c4ccccc4[N+](=O)[O-])c3O)[nH]c2c1", "=", 4.22),
    ("N=C(N)c1cc2cc(-c3cccc(OC4CCCC4)c3O)[nH]c2cc1Cl", "=", 3.62),
    ("N=C(N)c1ccc2nc(-c3cc([C@@H](CC(=O)O)C(=O)O)cc(-c4ccccc4)c3O)[nH]c2c1", "=", 3.80),
    ("Cc1ccccc1-c1cc([C@@H](CC(=O)O)C(=O)O)cc(-c2nc3ccc(C(=N)N)cc3[nH]2)c1O", "=", 4.30),
    ("N=C(N)c1ccc2[nH]c(-c3cc(Cl)cc(-c4ccccc4)c3O)cc2c1", "=", 6.00),
    ("N=C(N)c1ccc2[nH]c(-c3cc([C@@H](CC(=O)O)C(=O)O)cc(-c4ccccc4)c3O)cc2c1", "=", 5.49),
    ("N=C(N)c1ccc2nc(-c3cc([C@@H](CC(=O)O)C(=O)O)ccc3O)[nH]c2c1", "<", 4.12),
    ("N=C(N)c1ccc2nc(-c3cc([C@@H](CC(=O)O)C(=O)O)cc(-c4ccccc4F)c3O)[nH]c2c1", "=", 4.15),
    ("N=C(N)c1ccc2[nH]c(-c3cc([C@@H](CC(=O)O)C(=O)O)cc(Br)c3O)cc2c1", "=", 5.77),
]

----------
Measurement target: Urokinase-type plasminogen activator (Homo sapiens, UniProt P00749)
pKi: −log10 of the molar value.

# Query smiles, pKi
records = [
    ("N=C(N)c1ccc2nc(-c3cc([N+](=O)[O-])ccc3O)[nH]c2c1", 5.29),
    ("CN(C)C(=O)c1cc(-c2ccccc2)c(O)c(-c2cc3cc(C(=N)N)c(F)cc3[nH]2)c1", 7.52),
    ("N=C(N)c1cc2nc(-c3cccc(-c4ccccc4)c3O)[nH]c2cc1F", 6.55),
    ("COc1cc(-c2ccccc2)c(O)c(-c2cc3cc(C(=N)N)c(Cl)cc3[nH]2)c1", 8.59),
    ("Cc1cc(Br)c(O)c(-c2cc3cc(C(=N)N)ccc3[nH]2)c1", 7.19),
]

----------
Measurement target: Serine protease 1 (Bos taurus)
Sequence (P00760 whole entry): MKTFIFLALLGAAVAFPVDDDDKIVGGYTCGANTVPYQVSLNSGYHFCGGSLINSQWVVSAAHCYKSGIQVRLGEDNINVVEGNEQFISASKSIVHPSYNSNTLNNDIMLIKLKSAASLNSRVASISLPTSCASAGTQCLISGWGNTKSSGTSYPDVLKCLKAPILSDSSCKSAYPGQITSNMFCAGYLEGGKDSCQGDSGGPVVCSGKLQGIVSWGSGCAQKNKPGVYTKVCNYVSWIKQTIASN
Protocol details: Enzyme Assay and Determination of the Inhibition Constants
Measurement context: pH 6.1; 22 °C
pKi: −log10 of the molar value.

# Query smiles, Measurement target, pKi
data = [
    ("N=C(N)c1ccc2nc(-c3cc([N+](=O)[O-])ccc3O)[nH]c2c1", "Serine protease 1 (Bos taurus)", 6.33),
]

----------
Measurement target: Coagulation factor X (Homo sapiens)
Sequence (P00742 41-179 limits assumed): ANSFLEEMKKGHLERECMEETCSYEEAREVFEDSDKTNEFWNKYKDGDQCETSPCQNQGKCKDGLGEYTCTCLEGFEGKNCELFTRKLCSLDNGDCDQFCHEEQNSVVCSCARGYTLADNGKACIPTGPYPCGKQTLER
Sequence (P00742 235-488 limits assumed): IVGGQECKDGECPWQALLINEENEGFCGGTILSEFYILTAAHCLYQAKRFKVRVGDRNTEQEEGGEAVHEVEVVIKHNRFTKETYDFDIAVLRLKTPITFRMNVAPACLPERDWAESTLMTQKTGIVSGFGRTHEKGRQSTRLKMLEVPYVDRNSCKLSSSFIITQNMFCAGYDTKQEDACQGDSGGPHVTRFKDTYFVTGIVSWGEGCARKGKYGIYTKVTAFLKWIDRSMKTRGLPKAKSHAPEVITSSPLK
Protocol details: Enzyme Assay and Determination of the Inhibition Constants
Simple rule here: Ki less than 6000 nM is True, otherwise False.

# Query smiles, Measurement target, Label class
measured = [
    ("N=C(N)c1ccc2[nH]c(-c3cc(Cl)cc(-c4ccccc4)c3O)cc2c1", "Coagulation factor X (Homo sapiens)", "True"),
    ("N=C(N)c1cc2[nH]c(-c3cccc(-c4ccccc4)c3O)nc2cc1Cl", "Coagulation factor X (Homo sapiens)", "False"),
    ("Cc1cc(Br)c(O)c(-c2nc3ccc(C(=N)N)cc3[nH]2)c1", "Coagulation factor X (Homo sapiens)", "True"),
    ("N=C(N)c1ccc2nc(-c3ccccc3O)[nH]c2c1", "Coagulation factor X (Homo sapiens)", "False"),
    ("Cc1ccccc1-c1cc([C@@H](CC(=O)O)C(=O)O)cc(-c2nc3ccc(C(=N)N)cc3[nH]2)c1O", "Coagulation factor X (Homo sapiens)", "True"),
    ("CN(C)C(=O)c1cc(-c2ccccc2)c(O)c(-c2cc3cc(C(=N)N)ccc3[nH]2)c1", "Coagulation factor X (Homo sapiens)", "True"),
    ("N=C(N)c1ccc2nc(-c3ncccc3O)[nH]c2c1", "Coagulation factor X (Homo sapiens)", "False"),
    ("N=C(N)c1ccc2nc(-c3cc([C@@H](CC(=O)O)C(=O)O)cc(-c4ccccc4[N+](=O)[O-])c3O)[nH]c2c1", "Coagulation factor X (Homo sapiens)", "True"),
    ("CN(C)C(=O)c1cc(-c2ccccc2)c(O)c(-c2cc3cc(C(=N)N)c(Cl)cc3[nH]2)c1", "Coagulation factor X (Homo sapiens)", "False"),
    ("Cc1cc(Cl)c(O)c(-c2cc3cc(C(=N)N)ccc3[nH]2)c1", "Coagulation factor X (Homo sapiens)", "True"),
    ("COc1ccccc1-c1cc([C@@H](CC(=O)O)C(=O)O)cc(-c2nc3ccc(C(=N)N)cc3[nH]2)c1O", "Coagulation factor X (Homo sapiens)", "True"),
    ("CC(C)COc1cccc(-c2nc3ccc(C(=N)N)cc3[nH]2)c1O", "Coagulation factor X (Homo sapiens)", "True"),
    ("N=C(N)c1cc2cc(-c3cccc(OC4CCCC4)c3O)[nH]c2cc1Cl", "Coagulation factor X (Homo sapiens)", "False"),
    ("N=C(N)c1ccc2nc(-c3cc([C@@H](CC(=O)O)C(=O)O)cc(-c4ccccc4N)c3O)[nH]c2c1", "Coagulation factor X (Homo sapiens)", "True"),
    ("CC(C)COc1cccc(-c2nc3cc(F)c(C(=N)N)cc3[nH]2)c1O", "Coagulation factor X (Homo sapiens)", "False"),
    ("N=C(N)c1ccc2nc(-c3cc([C@@H](CC(=O)O)C(=O)O)cc(-c4ccccc4)c3O)[nH]c2c1", "Coagulation factor X (Homo sapiens)", "True"),
    ("CN(C)C(=O)c1cc(-c2ccccc2)c(O)c(-c2cc3cc(C(=N)N)c(F)cc3[nH]2)c1", "Coagulation factor X (Homo sapiens)", "True"),
    ("Cc1cc(Br)c(O)c(-c2cc3cc(C(=N)N)ccc3[nH]2)c1", "Coagulation factor X (Homo sapiens)", "True"),
    ("Cc1cc(-c2ccccc2)c(O)c(-c2cc3cc(C(=N)N)ccc3[nH]2)c1", "Coagulation factor X (Homo sapiens)", "True"),
    ("COc1ccc(O)c(-c2nc3ccc(C(=N)N)cc3[nH]2)c1", "Coagulation factor X (Homo sapiens)", "False"),
    ("N=C(N)c1ccc2nc(-c3cc([N+](=O)[O-])ccc3O)[nH]c2c1", "Coagulation factor X (Homo sapiens)", "False"),
    ("N=C(N)c1ccc2[nH]c(-c3ccccc3O)cc2c1", "Coagulation factor X (Homo sapiens)", "True"),
    ("N=C(N)c1ccc2nc(-c3cc(OC(F)(F)F)ccc3O)[nH]c2c1", "Coagulation factor X (Homo sapiens)", "False"),
    ("N=C(N)c1ccc2nc(-c3cc([C@@H](CC(=O)O)C(=O)O)cc(-c4ccccc4F)c3O)[nH]c2c1", "Coagulation factor X (Homo sapiens)", "True"),
    ("N=C(N)c1ccc2[nH]c(-c3cc([N+](=O)[O-])cc(-c4ccccc4)c3O)cc2c1", "Coagulation factor X (Homo sapiens)", "True"),
    ("N=C(N)c1ccc2nc(-c3cc([C@@H](CC(=O)O)C(=O)O)ccc3O)[nH]c2c1", "Coagulation factor X (Homo sapiens)", "False"),
    ("N=C(N)c1ccc2nc(-c3cc(F)ccc3O)[nH]c2c1", "Coagulation factor X (Homo sapiens)", "False"),
    ("COc1cc(-c2ccccc2)c(O)c(-c2cc3cc(C(=N)N)c(Cl)cc3[nH]2)c1", "Coagulation factor X (Homo sapiens)", "False"),
    ("N=C(N)c1ccc2[nH]c(-c3cc([C@@H](CC(=O)O)C(=O)O)cc(-c4ccccc4)c3O)cc2c1", "Coagulation factor X (Homo sapiens)", "True"),
    ("N=C(N)c1ccc2nc(-c3cc([C@@H](CC(=O)O)C(=O)O)cc(Br)c3O)[nH]c2c1", "Coagulation factor X (Homo sapiens)", "True"),
    ("N=C(N)c1ccc2[nH]c(-c3cc([C@@H](CC(=O)O)C(=O)O)cc(Br)c3O)cc2c1", "Coagulation factor X (Homo sapiens)", "True"),
]

----------
Measurement target: Serine protease 1 (Bos taurus)
Protocol details: Enzyme Assay and Determination of the Inhibition Constants
Measurement context: pH 7.5; 22 °C
pKi: −log10 of the molar value.

# Query smiles, pKi
measured = [
    ("N=C(N)c1cc2nc(-c3cccc(-c4ccccc4)c3O)[nH]c2cc1F", 6.64),
]
